Assay: Cytotoxicity against human IMR32 cells assessed as cell viability at 100 uM by MTT assay relative to control
Format: cell-based, IMR-32
Conditions: read-out: Activity
parameter: viability at 100 µM (%)
Answer with a number only, understood to be in %.

Lab note: CC[C@@H](C)C[C@@H](C)/C=C(C)/C=C/C=C/C(=O)c1c(O)c([C@]2(O)CC[C@@H](O)CC2)c[nH]c1=O [N-DEOXYMILITARINONE A] gave viability at 100 µM of 22
